# Tested on: HIV-2
# Test Details: In vitro anti-viral activity for HIV-2
# Type: cell-based
# Details: Human immunodeficiency virus 2
Measured Parameter: IC50 (nM)
// note: answer is a bare numeric in nM

In: Would you mind telling me what IC50 value was observed for `Fc1ccc(B(Oc2cccc3cccnc23)c2ccc(Cl)cc2)cc1` ?
Out: 40

---

# Test Details: HepG2 2.15 anti-viral evaluation assay (in vitro anti-HBV activity)
# Assay type: cell-based, HBV aywl strain
# Details: human, HepG2 2.2.15 cells (produce HBV aywl strain); HepG2 2.2.15 cells; positive control; read-out: Anti-HBV TC50
Measured Parameter: CC50

In: Would you mind telling me what CC50 value was observed for `Nc1ccn([C@@H]2CS[C@H](CO)O2)c(=O)n1` ?
Out: > 1 µM

Data origin, for the record: patent US7393856B2
